Target: human serum albumin (HSA) (Homo sapiens, UniProt P02768)
Construct: gene ALB; commercial human serum albumin purchased from Merck
Sequence (P02768 25-609): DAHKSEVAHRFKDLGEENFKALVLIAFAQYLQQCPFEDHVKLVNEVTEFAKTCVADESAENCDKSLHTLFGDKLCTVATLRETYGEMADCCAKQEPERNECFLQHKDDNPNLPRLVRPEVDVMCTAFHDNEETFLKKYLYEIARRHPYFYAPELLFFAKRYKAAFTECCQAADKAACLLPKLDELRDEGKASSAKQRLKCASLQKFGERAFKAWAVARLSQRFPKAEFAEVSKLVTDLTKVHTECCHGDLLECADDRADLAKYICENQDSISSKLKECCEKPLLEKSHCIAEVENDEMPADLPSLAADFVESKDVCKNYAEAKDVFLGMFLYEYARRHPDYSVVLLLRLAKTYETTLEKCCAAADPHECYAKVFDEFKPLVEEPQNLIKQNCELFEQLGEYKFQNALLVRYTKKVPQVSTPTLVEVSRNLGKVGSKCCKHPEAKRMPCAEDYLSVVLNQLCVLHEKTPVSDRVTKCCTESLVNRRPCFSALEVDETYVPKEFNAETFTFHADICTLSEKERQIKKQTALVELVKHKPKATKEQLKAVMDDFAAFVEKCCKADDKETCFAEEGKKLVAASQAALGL
Assay: fluorescence polarization titration, nonlinear […] fit
Format: binding
pKd: −log10 of the molar value.
measurement kind: pKd

compound | measurement kind | measured number
CC1(C)C(CO)=C(c2ccc3ccc4cccc5ccc2c3c45)C(C)(C)N1[O] [compound 1] | pKd | 5.85
